Tested on: 817829-284-R-J1-PDC multi-cell spheroid viability
Assay: Anticancer human tumor 817829-284-R-J1-PDC patient-derived colon adenocarcinoma cell line growth inhibition [PI3K]
Settings: second compound 1 µM; first compound 0.0316 µM; active compounds read low
Entries and their measured viability, T/C follow.
experimental endpoint: viability, T/C (%)

1. CC(=O)c1c(C)c2cnc(Nc3ccc(N4CCNCC4)cn3)nc2n(C2CCCC2)c1=O + Cc1nc(NC(=O)N2CCCC2C(N)=O)sc1-c1ccnc(C(C)(C)C(F)(F)F)c1 = 37.3
2. Cn1nccc1Nc1nccc(-c2ccn(C(CO)c3ccc(Cl)c(F)c3)c(=O)c2)n1 (stereo unspecified) + CC(Nc1ccc2c(c1)OCCn1cc(N3C(=O)OCC3C(F)F)nc1-2)C(N)=O = 55.9
3. CC(=O)c1c(C)c2cnc(Nc3ccc(N4CCNCC4)cn3)nc2n(C2CCCC2)c1=O + CC(Nc1ccc2c(c1)OCCn1cc(N3C(=O)OCC3C(F)F)nc1-2)C(N)=O = 29.7
4. CC(C)n1nc(-c2ccc3oc(N)nc3c2)c2c(N)ncnc21 + CC(Nc1ncnc2nc[nH]c12)c1cc2cccc(Cl)c2c(=O)n1-c1ccccc1 = 41.9
5. CC(Cn1ccc(-c2ccc(C#N)c(Cl)c2)n1)NC(=O)c1cc(C(C)O)[nH]n1 (stereo unspecified) + Cc1nc(NC(=O)N2CCCC2C(N)=O)sc1-c1ccnc(C(C)(C)C(F)(F)F)c1 = 53.1
6. CC(C)NCC(C(=O)N1CCN(c2ncnc3c2C(C)CC3O)CC1)c1ccc(Cl)cc1 (stereo unspecified) + COc1c(OCCCN2CCOCC2)ccc2c3n(c(=NC(=O)c4cnc(N)nc4)nc12)CCN3 = 12.4

----------
System: 817829-284-R-J1-PDC multi-cell spheroid viability
Test: Anticancer human tumor 817829-284-R-J1-PDC cell line growth inhibition [PI3K];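 further: spheroids exposed to agents for seven days before readout; percent of vehicle DMSO control viability which is 100%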
Conditions: second compound 3.16 µM; first compound 0.00316 µM; active compounds read low
Response field label takes Met when viability, T/C is strictly below 80% and Not met in all other cases.

1) CC(C)n1nc(-c2ccc3oc(N)nc3c2)c2c(N)ncnc21 + CC(Nc1ncnc2nc[nH]c12)c1cc2cccc(Cl)c2c(=O)n1-c1ccccc1 = Not met
2) CCN1CCN(Cc2ccc(Nc3ncc(F)c(-c4cc(F)c5nc(C)n(C(C)C)c5c4)n3)nc2)CC1 + Cc1nc(NC(=O)N2CCCC2C(N)=O)sc1-c1ccnc(C(C)(C)C(F)(F)F)c1 = Met
3) CC(=O)c1c(C)c2cnc(Nc3ccc(N4CCNCC4)cn3)nc2n(C2CCCC2)c1=O + Cc1nc(NC(=O)N2CCCC2C(N)=O)sc1-c1ccnc(C(C)(C)C(F)(F)F)c1 = Met
4) Cn1ncnc1[C@H]1c2n[nH]c(=O)c3cc(F)cc(c23)N[C@@H]1c1ccc(F)cc1 + Cc1nc(NC(=O)N2CCCC2C(N)=O)sc1-c1ccnc(C(C)(C)C(F)(F)F)c1 = Met

----------
Tested on: 817829-284-R-J1-PDC multi-cell spheroid viability
Assay: Anticancer human tumor 817829-284-R-J1-PDC cell line growth inhibition [PI3K];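 further: spheroids exposed to agents for seven days before readout; percent of vehicle DMSO control viability which is 100%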
Conditions: second compound 0.0316 µM; first compound 0.1 µM; active compounds read low
experimental endpoint: viability, T/C (%)

1) CNC(=O)c1ccc(N2C(=S)N(c3ccc(C#N)c(C(F)(F)F)c3)C(=O)C2(C)C)cc1F + COc1c(OCCCN2CCOCC2)ccc2c3n(c(=NC(=O)c4cnc(N)nc4)nc12)CCN3 = 61.2
2) Cn1nccc1Nc1nccc(-c2ccn(C(CO)c3ccc(Cl)c(F)c3)c(=O)c2)n1 (stereo not given) + Cc1nc(NC(=O)N2CCCC2C(N)=O)sc1-c1ccnc(C(C)(C)C(F)(F)F)c1 = 66.9
3) C[C@@H](NC(=O)c1ncnc(N)c1Cl)c1ncc(C(=O)Nc2cc(C(F)(F)F)c(Cl)cn2)s1 + COc1c(OCCCN2CCOCC2)ccc2c3n(c(=NC(=O)c4cnc(N)nc4)nc12)CCN3 = 64.1
4) CC(=O)c1c(C)c2cnc(Nc3ccc(N4CCNCC4)cn3)nc2n(C2CCCC2)c1=O + COc1c(OCCCN2CCOCC2)ccc2c3n(c(=NC(=O)c4cnc(N)nc4)nc12)CCN3 = 24.3
5) C[C@@H](NC(=O)c1ncnc(N)c1Cl)c1ncc(C(=O)Nc2cc(C(F)(F)F)c(Cl)cn2)s1 + Cc1nc(NC(=O)N2CCCC2C(N)=O)sc1-c1ccnc(C(C)(C)C(F)(F)F)c1 = 74.4
